Source: patent US6867211B2

# Target desc: 5-lipoxygenase (Homo sapiens)
# Construct: Human granulocytes are used as a source of the 5-lipoxygenase; endogenous in cells
# Test: In vitro test system for determining the inhibition of 5-lipoxygenase (LTB4 from human granulocytes, A 23187, ELISA)
# Condition details: human granulocytes; read-out: 5-LO IC50
pIC50: −log10 of the molar value.
Readout kind: pIC50

{"Molecule": "CC1(C)CSc2c(-c3ccncc3)c(-c3ccc(F)cc3)cn2C1", "pIC50": 7.30}
{"Molecule": "CCOC(=O)c1c(-c2ccncc2)c(-c2ccc(Cl)s2)n2c1CCC2", "pIC50": 5.89}
{"Molecule": "Cc1c(-c2ccncc2)c(-c2ccc(F)cc2)n2c1CCCC2", "pIC50": 5.66}
{"Molecule": "CC1(C)COc2c(-c3ccncc3)c(-c3ccc(F)cc3)cn2C1", "pIC50": 5.87}
{"Molecule": "Fc1ccc(-c2cc3n(c2-c2ccncc2)CCC3)cc1", "pIC50": 6.17}

(a) CCOC(=O)c1c(-c2ccc(F)cc2)c(-c2ccncc2)n2c1CCC2 [Example 19A]
(b) OCc1c(-c2ccncc2)c(-c2ccc(F)cc2)n2c1CCC2
Enquiry: Between these two entries, a and b , state which has the higher pIC50. Select an item and report its label.
Return: a

----------
# Target desc: 5-lipoxygenase (Homo sapiens, UniProt P09917)
# Construct: Human granulocytes are used as a source of the 5-lipoxygenase; endogenous in cells
# Sequence (P09917 whole entry): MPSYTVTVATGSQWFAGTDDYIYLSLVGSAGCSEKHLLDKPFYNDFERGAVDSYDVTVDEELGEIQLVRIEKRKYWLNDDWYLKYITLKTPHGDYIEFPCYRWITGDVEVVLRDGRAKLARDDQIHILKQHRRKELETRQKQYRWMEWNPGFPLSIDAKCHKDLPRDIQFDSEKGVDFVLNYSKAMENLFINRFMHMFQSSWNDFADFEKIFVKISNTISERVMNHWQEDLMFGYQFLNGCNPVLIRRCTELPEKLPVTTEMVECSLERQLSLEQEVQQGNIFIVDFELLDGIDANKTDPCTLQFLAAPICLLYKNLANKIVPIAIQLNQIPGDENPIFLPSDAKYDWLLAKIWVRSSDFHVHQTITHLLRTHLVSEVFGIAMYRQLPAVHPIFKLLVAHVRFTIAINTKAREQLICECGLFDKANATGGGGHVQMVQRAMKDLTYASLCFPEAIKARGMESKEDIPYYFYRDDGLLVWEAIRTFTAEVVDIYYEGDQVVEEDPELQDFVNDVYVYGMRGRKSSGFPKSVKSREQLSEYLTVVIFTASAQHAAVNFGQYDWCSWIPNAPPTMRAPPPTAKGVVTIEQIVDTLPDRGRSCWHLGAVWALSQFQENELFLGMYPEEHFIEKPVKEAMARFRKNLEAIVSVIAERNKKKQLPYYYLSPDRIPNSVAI
# Test: In vitro test system for determining the inhibition of 5-lipoxygenase (LTB4 from human granulocytes, A 23187, ELISA)
# Condition details: human granulocytes; read-out: 5-LO IC50
Readout kind: IC50 (µM)

(P) Fc1ccc(-c2c(-c3ccncc3)cc3n2CCC3)cc1
(Q) Cc1c(-c2ccncc2)c(-c2ccc(F)cc2)n2c1SCC2
(R) Fc1ccc(-c2c(-c3ccncc3)cc3n2CCCC3)cc1
Enquiry: Rank entries according to their IC50, from the largest number down. Write out the labels following the order that was asked for.
Return: R, Q, P
